Quick reference: melting point of the listed items.

Nc1ncnc2sc(Cc3ccncc3)c(-c3ccc(NC(=O)Nc4cccc(C(F)(F)F)c4)cc3)c12 [Example 142] :: 162 to 166 °C
Cc1ccc(NC(=O)Nc2ccc(-c3c(Cc4ccccc4)sc4ncnc(N)c34)cc2)cc1 [Example 9] :: 169 to 173 °C
Cc1cccc(CC(=O)Nc2ccc(-c3c(CCO)sc4ncnc(N)c34)cc2)c1 [Example 350] :: 142 to 144 °C
COCCc1sc2ncnc(N)c2c1-c1ccc(NC(=O)Cc2cccc(C)c2)cc1 [Example 112] :: 200 to 202 °C
Cc1ccccc1NC(=O)Nc1ccc(-c2c(C(C)C)sc3ncnc(N)c23)cc1 [Example 12] :: 233 to 234 °C

Record Nc1ncnc2sc(Cc3cccnc3)c(-c3ccc(NC(=O)Nc4cccc(Cl)c4)cc3)c12 [Example 117] , field melting point: 169 to 172 °C

According to the records, this molecule COCCc1sc2ncnc(N)c2c1-c1ccc(NS(=O)(=O)c2ccccc2)cc1 [Example 111] displays melting point of 206 to 208 °C

---

Below is a list of entries, each paired with its recorded melting point value.

Completed entries (count: 5):
Nc1ncnc2sc(Cc3ccccc3)c(-c3ccc(NS(=O)(=O)c4ccccc4)cc3)c12 [Example 13] :: 100 to 105 °C
COCCc1sc2ncnc(N)c2c1-c1ccc(NC(=O)c2ccccc2)cc1 [Example 113] :: 200 to 202 °C
COCCc1sc2ncnc(N)c2c1-c1ccc(NC(=O)Nc2ccc(C)cc2)cc1 [Example 110] :: 128 to 132 °C
Cc1ccccc1NC(=O)Nc1ccc(-c2c(Cc3ccccc3)sc3ncnc(N)c23)cc1 [Example 11] :: 245 to 248 °C
COCCc1sc2ncnc(N)c2c1-c1ccc(NC(=O)Nc2ccccc2C)cc1 [Example 137] :: 217 to 219 °C

Lab note: measured melting point of Nc1ncnc2sc(CCO)c(-c3ccc(NC(=O)Nc4cccc(C(F)(F)F)c4)cc3)c12 [Example 139] was 155 to 158 °C

Per the record, Cc1ccccc1NC(=O)Nc1ccc(-c2c(CCO)sc3ncnc(N)c23)cc1 [Example 107] has melting point of 159 to 162 °C

Per the records, this compound ( COCCc1sc2ncnc(N)c2c1-c1ccc(NC(=O)Nc2cc(C(F)(F)F)ccc2F)cc1 [Example 140] ) has melting point equal to 209 to 211 °C

The value of melting point measured for the compound CC(C)c1sc2ncnc(N)c2c1-c1ccc(NC(=O)c2ccccc2)cc1 [Example 8] turned out to be > 250 °C
